All figures here come from the supplement of paper PMC11246515.

measurement.description: total protein half-life in vivo (active degradation + dilution); higher = more stable protein
run.parameters: wild type E. coli NCM3722; growth: N-lim chemostat; doubling time 12 h
Some sequences, each annotated with its measured total protein half-life in vivo.
Reply with just the number (in h).

- sequence.entry: "MIDTTLPLTDIHRHLDGNIRPQTILELGRQYNISLPAQSLETLIPHVQVIANEPDLVSFLTKLDWGVKVLASLDACRRVAFENIEDAARHGLHYVELRFSPGYMAMAHQLPVAGVVEAVIDGVREGCRTFGVQAKLIGIMSRTFGEAACQQELEAFLAHRDQITALDLAGDELGFPGSLFLSHFNRARDAGWHITVHAGEAAGPESIWQAIRELGAERIGHGVKAIEDRALMDFLAEQQIGIESCLTSNIQTSTVAELAAHPLKTFLEHGIRASINTDDPGVQGVDIIHEYTVAAPAAGLSREQIRQAQINGLEMAFLSAEEKRALREKVAAK"
  quantity.unit: "h"
  recorded.measurement: 7.15

Below: the item to evaluate.
Query :: Give its total protein half-life in vivo value. Item: `MRLEFSIYRYNPDVDDAPRMQDYTLEADEGRDMMLLDALIQLKEKDPSLSFRRSCREGVCGSDGLNMNGKNGLACITPISALNQPGKKIVIRPLPGLPVIRDLVVDMGQFYAQYEKIKPYLLNNGQNPPAREHLQMPEQREKLDGLYECILCACCSTSCPSFWWNPDKFIGPAGLLAAYRFLIDSRDTETDSRLDGLSDAFSVFRCHSIMNCVSVCPKGLNPTRAIGHIKSMLLQRNA`
Result :: 10.7
